Reference source: paper PMC8151276

Target: SSTR2 (Homo sapiens)
Construct: purchased Promega (in-house HiBiT-GPCR construct library, NanoBRET)
Sequence (P30874 whole entry): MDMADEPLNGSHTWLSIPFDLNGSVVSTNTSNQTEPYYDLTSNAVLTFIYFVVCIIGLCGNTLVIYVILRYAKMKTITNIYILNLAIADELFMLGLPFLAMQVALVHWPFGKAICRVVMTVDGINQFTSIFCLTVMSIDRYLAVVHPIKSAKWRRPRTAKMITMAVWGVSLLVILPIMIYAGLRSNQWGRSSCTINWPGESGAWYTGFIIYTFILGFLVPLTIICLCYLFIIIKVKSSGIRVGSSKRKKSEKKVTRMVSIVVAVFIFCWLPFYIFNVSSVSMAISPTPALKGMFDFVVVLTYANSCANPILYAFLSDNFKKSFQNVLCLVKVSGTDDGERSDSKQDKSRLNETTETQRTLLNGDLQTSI
Test: NanoBRET screen HiBiT-SSTR2 in HEK293
Type: binding
Conditions: SSTR2; tracer 0.1μM
Just a reminder that ties go to label 0: only NanoBRET Fold Response strictly below 1 counts as label 1.

{"COMPOUND": "O=C(CCOCCOCCOCCOCCNC(=O)CCc1ccc2n1[B-](F)(F)[N+]1=C(c3ccc[nH]3)C=CC1=C2)NCCCN1CCN(C2=Nc3ccccc3Oc3ccc(Cl)cc32)CC1", "EXPERIMENTAL_TARGET": "SSTR2 (Homo sapiens)", "LABEL_CLASS": "label 0"}

In the record for CCCn1c(=O)c2[nH]c(-c3ccc(OCC(=O)NCCNC(=O)CCOCCNC(=O)c4ccc(CNC(=O)CCc5ccc6n5[B-](F)(F)[N+]5=C(c7ccc[nH]7)C=CC5=C6)cc4)cc3)nc2n(CCC)c1=O , is NanoBRET Fold Response less than 1?
label 1

hey, is NanoBRET Fold Response for CC(C)N(CC[C@H](c1ccccc1)c1cc(CCNC(=O)CCOCCOCCOCCOCCNC(=O)CCc2ccc3n2[B-](F)(F)[N+]2=C(c4ccc[nH]4)C=CC2=C3)ccc1O)C(C)C lower than 1 or not?
label 0

Regarding O=C(CCc1ccc2n1[B-](F)(F)[N+]1=C(c3ccc[nH]3)C=CC1=C2)NCCOCCOCCNC(=O)OCCOCCN1CCN(C2=Nc3ccccc3Sc3ccccc32)CC1 , kindly confirm whether its NanoBRET Fold Response is beneath 1.
label 0

Does the reported NanoBRET Fold Response of the following compound sit strictly below 1? O=C(CCc1ccc2n1[B-](F)(F)[N+]1=C(c3ccc[nH]3)C=CC1=C2)NCc1ccc(C(=O)NCCOCCC(=O)N[C@@H]2CC[C@@]3(O)[C@H]4Cc5ccc(O)c6c5[C@@]3(CCN4CC3CC3)[C@H]2O6)cc1 [Naltrexone-3-NB590]
label 0

Input Cc1cc2c(s1)Nc1ccccc1N=C2N1CCN(CCCNC(=O)CCOCCOCCOCCOCCNC(=O)CCc2ccc3n2[B-](F)(F)[N+]2=C(c4ccc[nH]4)C=CC2=C3)CC1 ; condition: NanoBRET Fold Response strictly below 1. Does it hold?
label 0

Record CC(C)N(CC[C@H](c1ccccc1)c1cc(CCNC(=O)c2ccc(CNC(=O)CCc3ccc4n3[B-](F)(F)[N+]3=C(c5ccc[nH]5)C=CC3=C4)cc2)ccc1O)C(C)C : is its NanoBRET Fold Response strictly below 1?
label 1
